Ref: ChEMBL document CHEMBL2417404

Target: UniProtKB Q02083
Sequence (Q02083 29-125 limits assumed): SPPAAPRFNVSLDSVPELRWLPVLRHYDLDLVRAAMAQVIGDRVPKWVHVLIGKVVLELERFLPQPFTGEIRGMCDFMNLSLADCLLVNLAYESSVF
Sequence (Q02083 126-359 limits assumed): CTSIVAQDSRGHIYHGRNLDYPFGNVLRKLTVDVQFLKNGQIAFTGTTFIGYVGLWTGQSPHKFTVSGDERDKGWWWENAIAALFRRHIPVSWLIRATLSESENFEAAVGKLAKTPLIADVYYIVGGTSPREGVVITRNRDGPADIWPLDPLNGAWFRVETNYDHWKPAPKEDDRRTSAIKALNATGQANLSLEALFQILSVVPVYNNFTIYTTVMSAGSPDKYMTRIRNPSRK
Assay: Inhibition of C-terminal His-6-tagged recombinant human spleen NAAA enzyme expressed in HEK293 cells
measured endpoint: IC50 (nM)
Quick note: give the figure in nM, leave out the unit.

Exam item: Could you share what IC50 was measured for C[C@@H]1OC(=O)[C@@H]1NC(=O)OCCCOCc1ccccc1 , tested on UniProtKB Q02083?
Marked response: 20

###

// reported inhibition per item
Target: Fatty-acid amide hydrolase 1 (Rattus norvegicus) (UniProt P97612)
Sequence (P97612 whole entry): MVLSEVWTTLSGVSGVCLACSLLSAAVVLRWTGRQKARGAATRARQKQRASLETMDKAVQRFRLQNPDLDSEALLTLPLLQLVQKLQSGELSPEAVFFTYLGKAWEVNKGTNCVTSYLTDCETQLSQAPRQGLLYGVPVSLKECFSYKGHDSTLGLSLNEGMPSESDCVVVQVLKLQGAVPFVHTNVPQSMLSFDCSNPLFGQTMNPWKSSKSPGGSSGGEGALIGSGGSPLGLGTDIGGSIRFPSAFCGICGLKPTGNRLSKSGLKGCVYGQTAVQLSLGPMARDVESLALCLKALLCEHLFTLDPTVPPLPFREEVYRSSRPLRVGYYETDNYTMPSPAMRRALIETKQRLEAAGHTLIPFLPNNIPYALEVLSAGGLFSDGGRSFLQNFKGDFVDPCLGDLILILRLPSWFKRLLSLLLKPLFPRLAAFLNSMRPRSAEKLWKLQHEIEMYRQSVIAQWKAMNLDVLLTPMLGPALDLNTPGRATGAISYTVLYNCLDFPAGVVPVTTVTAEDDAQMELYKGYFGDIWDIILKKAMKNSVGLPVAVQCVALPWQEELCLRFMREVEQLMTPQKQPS
Test: Inhibition of rat brain FAAH using [3H]anandamide as substrate preincubated at 10 uM for 10 mins followed by substrate addition by liquid scintillation counting

Example cases with answers are listed next.
> print(dat)
                         structure.notation  measured.endpoint  meas.value
1  C[C@@H]1OC(=O)[C@@H]1NC(=O)OCCCCCC1CCCCC1         inhibition       < 10%
2  CCCCCCC[C@H](C)OC(=O)N[C@H]1C(=O)O[C@H]1C         inhibition         19%
3  C[C@@H]1OC(=O)[C@@H]1NC(=O)OCCCCCc1ccccc1         inhibition       < 10%
4  C[C@@H]1OC(=O)[C@@H]1NC(=O)OCc1ccc(-c2ccccc2)cc1         inhibition       < 10%

Exam item: So what does the record say about inhibition for C[C@@H]1OC(=O)[C@@H]1NC(=O)OCCCOCc1ccccc1 ?
Marked response: < 10%

###

Biological target: Acid ceramidase (Rattus norvegicus)
Assay: Inhibition of rat lung acid ceramidase overexpressed in HEK293 cells using N-Lauroyl ceramide as substrate preincubated at 10 uM for 30 mins followed by substrate addition by LC-MS analysis
Assay type: cell-based
measured endpoint: inhibition (%)
Quick note: give the figure in %, leave out the unit.

> print(dat)
                         structure.notation                        target.system  meas.value
1  CCCCCCC[C@H](C)OC(=O)N[C@H]1C(=O)O[C@H]1C  Acid ceramidase (Rattus norvegicus)          45

# context switch: different molecule, same inhibition
Exam item: So what does the record say about inhibition for C[C@@H]1OC(=O)[C@@H]1NC(=O)OCc1ccc(-c2ccccc2)cc1 ?
Marked response: 30

###

// reported pIC50 per item
Target: UniProt:Q5KTC7
Assay: Inhibition of Sprague Dawley rat lung native NAAA enzyme using heptadecenoylethanolamide as substrate preincubated for 30 mins followed by substrate addition measured after 30 mins by UPLC-MS analysis
Conditions: read-out: IC50
# log scale: pIC50 equals minus log10 of the concentration in mol/L

Example cases with answers are listed next.
> print(dat)
                                   compound  meas.value
1  CCCCCCCC(C)OC(=O)N[C@H]1C(=O)O[C@H]1C (mixture of isomers)        7.22
2  C[C@@H]1OC(=O)[C@@H]1NC(=O)OCCCCCC1CCCCC1        7.89
3  CC(CCCCc1ccccc1)OC(=O)N[C@H]1C(=O)O[C@H]1C (mixture of isomers)        7.54
4   C[C@@H]1OC(=O)[C@@H]1NC(=O)OCCCc1ccccc1        7.05
5  CC(CCCCc1ccccc1)OC(=O)N[C@H]1C(=O)O[C@H]1C (single isomer, unassigned; diastereomer 2)        5.29

Exam item: So what does the record say about pIC50 for C[C@@H]1OC(=O)[C@@H]1NC(=O)OCc1cccc(-c2ccccc2)c1 ?
Marked response: 4.64

Exam item: So what does the record say about pIC50 for CCCCCCC[C@@H](C)OC(=O)N[C@H]1C(=O)O[C@H]1C ?
Marked response: 6.57

###

// reported inhibition per item
Target: Acid ceramidase (Rattus norvegicus) (UniProt Q6P7S1)
Sequence (whole entry): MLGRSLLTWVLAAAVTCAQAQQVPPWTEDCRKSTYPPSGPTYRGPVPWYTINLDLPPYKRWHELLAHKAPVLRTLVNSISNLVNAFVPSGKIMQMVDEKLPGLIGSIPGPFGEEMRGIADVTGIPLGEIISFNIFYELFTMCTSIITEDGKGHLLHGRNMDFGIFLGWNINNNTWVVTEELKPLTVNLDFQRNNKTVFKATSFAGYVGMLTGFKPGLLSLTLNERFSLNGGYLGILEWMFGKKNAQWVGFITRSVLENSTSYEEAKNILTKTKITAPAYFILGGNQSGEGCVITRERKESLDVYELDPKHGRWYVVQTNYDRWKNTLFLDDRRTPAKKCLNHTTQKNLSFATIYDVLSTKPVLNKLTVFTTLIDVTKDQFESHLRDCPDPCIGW
Test: Inhibition of rat lung acid ceramidase overexpressed in HEK293 cells using N-Lauroyl ceramide as substrate preincubated at 10 uM for 30 mins followed by substrate addition by LC-MS analysis
Type: cell-based

> print(dat)
                         structure.notation  measured.endpoint  meas.value
1  C[C@@H]1OC(=O)[C@@H]1NC(=O)OCCCCCc1ccccc1         inhibition       < 10%
2  C[C@@H]1OC(=O)[C@@H]1NC(=O)OCCCOCc1ccccc1         inhibition       < 10%

Exam item: So what does the record say about inhibition for C[C@@H]1OC(=O)[C@@H]1NC(=O)OCCCCCC1CCCCC1 ?
Marked response: < 10%

###

Target: N-acylethanolamine-hydrolyzing acid amidase (Rattus norvegicus, UniProt Q5KTC7)
Sequence (Q5KTC7 whole entry): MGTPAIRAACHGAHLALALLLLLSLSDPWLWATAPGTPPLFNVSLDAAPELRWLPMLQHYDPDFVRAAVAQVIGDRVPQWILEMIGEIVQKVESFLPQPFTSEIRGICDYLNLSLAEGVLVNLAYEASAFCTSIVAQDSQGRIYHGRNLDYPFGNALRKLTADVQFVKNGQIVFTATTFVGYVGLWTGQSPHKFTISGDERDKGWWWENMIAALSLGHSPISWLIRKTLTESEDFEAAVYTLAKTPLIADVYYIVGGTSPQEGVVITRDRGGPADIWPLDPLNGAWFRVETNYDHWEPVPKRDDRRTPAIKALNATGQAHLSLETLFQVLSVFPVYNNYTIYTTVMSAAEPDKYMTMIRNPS
Assay: Inhibition of Sprague Dawley rat lung native NAAA enzyme using heptadecenoylethanolamide as substrate preincubated for 30 mins followed by substrate addition measured after 30 mins by UPLC-MS analysis
Conditions: read-out: IC50
// reported IC50 per item
Quick note: give the figure in µM, leave out the unit.

Example cases with answers are listed next.
> print(dat)
                                   molecule                             target.system  meas.value
1  C[C@H]1OC(=O)[C@@H]1NC(=O)OCCCCCc1ccccc1  N-acylethanolamine-hydrolyzing acid amidase (Rattus norvegicus, UniProt Q5KTC7)        0.02
2  CC(C)C(CCCCc1ccccc1)OC(=O)N[C@H]1C(=O)O[C@H]1C (stereo not given in full)  N-acylethanolamine-hydrolyzing acid amidase (Rattus norvegicus, UniProt Q5KTC7)        0.08
3  CC(C)C(CCCCc1ccccc1)OC(=O)N[C@H]1C(=O)O[C@H]1C (single isomer, unassigned; diastereomer 2)  N-acylethanolamine-hydrolyzing acid amidase (Rattus norvegicus, UniProt Q5KTC7)        12.2
4  CC(CCCCc1ccccc1)OC(=O)N[C@H]1C(=O)O[C@H]1C (single isomer, unassigned; diastereomer 1)  N-acylethanolamine-hydrolyzing acid amidase (Rattus norvegicus, UniProt Q5KTC7)       0.018

Exam item: So what does the record say about IC50 for CCCCCOC(=O)N[C@H]1C(=O)O[C@H]1C ?
Marked response: 0.76
